# SYSTEM: PARG (Homo sapiens, UniProt Q86W56)
# Construct: made in house
# Sequence (Q86W56 whole entry): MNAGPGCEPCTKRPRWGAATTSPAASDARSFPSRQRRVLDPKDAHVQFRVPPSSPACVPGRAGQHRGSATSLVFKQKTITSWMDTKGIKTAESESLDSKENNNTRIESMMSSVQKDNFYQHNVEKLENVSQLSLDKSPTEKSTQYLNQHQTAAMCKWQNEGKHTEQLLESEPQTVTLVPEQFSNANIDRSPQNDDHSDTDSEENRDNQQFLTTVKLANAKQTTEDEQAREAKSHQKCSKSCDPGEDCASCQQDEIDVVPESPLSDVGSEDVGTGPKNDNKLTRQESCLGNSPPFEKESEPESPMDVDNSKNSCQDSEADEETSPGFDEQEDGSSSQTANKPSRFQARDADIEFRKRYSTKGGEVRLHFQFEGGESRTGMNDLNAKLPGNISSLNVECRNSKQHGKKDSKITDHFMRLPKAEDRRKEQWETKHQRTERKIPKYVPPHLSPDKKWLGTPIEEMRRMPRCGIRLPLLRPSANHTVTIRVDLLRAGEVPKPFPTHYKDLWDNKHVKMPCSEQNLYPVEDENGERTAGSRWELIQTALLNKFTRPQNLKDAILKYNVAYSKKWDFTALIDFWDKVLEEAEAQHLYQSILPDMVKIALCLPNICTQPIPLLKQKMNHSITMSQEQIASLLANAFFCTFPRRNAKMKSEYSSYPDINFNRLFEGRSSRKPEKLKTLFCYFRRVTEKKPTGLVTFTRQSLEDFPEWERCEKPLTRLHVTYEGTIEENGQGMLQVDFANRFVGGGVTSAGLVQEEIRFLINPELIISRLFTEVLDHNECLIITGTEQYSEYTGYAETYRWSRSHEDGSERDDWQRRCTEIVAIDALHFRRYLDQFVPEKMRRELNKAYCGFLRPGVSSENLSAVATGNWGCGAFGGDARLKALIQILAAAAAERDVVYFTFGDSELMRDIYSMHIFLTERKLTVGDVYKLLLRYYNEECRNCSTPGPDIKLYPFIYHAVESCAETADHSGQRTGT
# TEST DETAILS: Enzymatic inhibitory activity against PARG, HTRF assay
# Format: biochemical
# APPLIED CONDITIONS: HTRF; PARylated PARP1 protein as substrate; 60 minutes at room temperature; read-out: IC50 against PARG enzyme
# Method: In this experiment, the enzymatic inhibitory activity of the compounds of the present disclosure against PARG was determined using an HTRF (homogeneous time-resolved fluorescence) assay. HTRF assay reagents were purchased from PerkinElmer (Cat. Nos. 61HISTLB and 610SAXLB). The purified protein was prepared in-house. PARG enzyme reaction buffer: 50 mM Tris (pH 7.4), 0.1 mg/mL BSA, 3 mM EDTA, 0.4 mM EGTA, 1 mM DTT, 50 mM KCl, and 0.01% Tween 20. […]
pIC50: −log10 of the molar value.
METRIC: pIC50

{"columns": ["COMPOUND", "MEASUREMENT"],
 "data": [
  ["COc1nc2c(N3CCN(C(=O)C(C)C)CC3)cc(S(=O)(=O)NC3(C#N)CC3)cc2n1-c1nnc(C(F)F)s1 [Compound B020]", 7.70],
  ["C[C@H]1CN(c2cc(S(=O)(=O)NC3(C)CC3)cc3c2n2nc(N4CCCC4=O)nc2n3-c2nnc(C(F)F)s2)C[C@H](C)N1 [Compound 084M]", 9.10],
  ["CC1(NS(=O)(=O)c2cc(N3CCNCC3)c3ncn(-c4nnc(C(F)F)s4)c3c2)CC1 [Compound B001]", 7.35],
  ["CN(C)C(=O)N1CCN(c2cc(S(=O)(=O)NC3(C)CC3)cc3c2[nH]c(=O)n3-c2nnc(C(F)F)s2)CC1 [Compound A004]", 7.97],
  ["C[C@H]1CN(c2cc(S(=O)(=O)NC3(C)CC3)cc3c2ncn3-c2nnc(C(F)F)s2)C[C@H](C)N1C(=O)N(C)C [Compound B005]", 7.94],
  ["C[C@H]1CN(c2cc(S(=O)(=O)NC3(C#N)CC3)cc3c2ncn3-c2nnc(C(F)F)s2)C[C@H](C)N1 [Compound B016]", 7.67],
  ["C[C@H]1CN(c2cc(S(=O)(=O)NC3(C)CC3)cc3c2nc(C2CCCO2)n3-c2nnc(C(F)F)s2)C[C@H](C)N1 (stereo partly shown) [Compound 077B]", 8.47],
  ["COC(=O)N1CCN(c2cc(S(=O)(=O)NC3(C)CC3)cc3c2n(C)c(=O)n3-c2nnc(C(F)F)s2)CC1 [Compound A028]", 7.72],
  ["C=CCn1c(=O)n(-c2nnc(C(F)F)s2)c2cc(S(=O)(=O)NC3(C#N)CC3)cc(N3CCN(S(=O)(=O)C4CCOC4)CC3)c21 (stereo not shown) [Compound 074C]", 8.54],
  ["CN(C)C(=O)N1CC=C(c2cc(S(=O)(=O)NC3(C)CC3)cc3c2n(C)c(=O)n3-c2nnc(C(F)F)s2)CC1 [Compound A038]", 8.28],
  ["C[C@H]1CN(c2cc(S(=O)(=O)NC3(C)CC3)cc3c2n2nc(NC(=O)C4CC4)nc2n3-c2nnc(C(F)F)s2)C[C@H](C)N1 [Compound 084L]", 8.96],
  ["C=CCn1c(=O)n(-c2nnc(C(F)F)s2)c2cc(S(=O)(=O)NC3(C#N)CC3)cc(N3CCN(C(=O)C(C)(C)OC)CC3)c21 [Compound 067L]", 8.31],
  ["C=CCn1c(=O)n(-c2nnc(C(F)F)s2)c2cc(S(=O)(=O)NC3(C#N)CC3)cc(N3CCN(S(=O)(=O)c4ccn(C)n4)CC3)c21 [Compound 075B]", 7.45],
  ["CC(C)C(=O)N1CCN(c2cc(S(=O)(=O)NC3(C)COC3)cc3c2n(C)c(=O)n3-c2nnc(C(F)F)s2)CC1 [Compound A037]", 8.17],
  ["CC(C)Oc1nc2c(N3CCN(C(=O)C(C)C)CC3)cc(S(=O)(=O)NC3(C#N)CC3)cc2n1-c1nnc(C(F)F)s1 [Compound 057L]", 8.07],
  ["C[C@H]1CN(c2cc(S(=O)(=O)NC3(CF)CC3)cc3c2c2nccnc2n3-c2nnc(C(F)F)s2)C[C@H](C)N1 [Compound 065I]", 8.74],
  ["C[C@H]1CN(c2cc(S(=O)(=O)NC3(C#N)CC3)cc3c2c2nccnc2n3-c2nnc(C(F)F)s2)C[C@H](C)N1 [Compound 065K]", 8.20],
  ["C=CCn1c(=O)n(-c2nnc(C(F)F)s2)c2cc(S(=O)(=O)NC3(C#N)CC3)cc(N3CCN(C(=O)C(C)C)CC3)c21 [Compound A051]", 8.12],
  ["C=CCn1c(=O)n(-c2nnc(C(F)(F)F)s2)c2cc(S(=O)(=O)NC3(C#N)CC3)cc(N3CCN(C(=O)C(C)(C)O)CC3)c21 [Compound 070B]", 7.69],
  ["Cn1c(=O)n(-c2nnc(C(F)F)s2)c2cc(S(=O)(=O)NC3(C)CC3)cc(N3CCNCC3)c21 [Compound A005]", 7.52],
  ["CC(C)C(=O)N1CCN(c2cc(S(=O)(=O)NC3(C)CC3)cc3c2n(C)c(=O)n3-c2nnc(C(F)F)s2)CC1 [Compound A003]", 8.27],
  ["CCn1c(=O)n(-c2nnc(C(F)F)s2)c2cc(S(=O)(=O)NC3(C#N)CC3)cc(N3CCN(C(=O)N(C)C)CC3)c21 [Compound A043]", 8.10],
  ["C[C@H]1CN(c2cc(S(=O)(=O)NC3(C#N)CC3)cc3c2nc(C2CCCO2)n3-c2nnc(C(F)F)s2)C[C@H](C)N1 (stereo partly shown) [Compound 077J]", 7.98],
  ["[2H]C([2H])([2H])C1(NS(=O)(=O)c2cc(N3C[C@H](C)N[C@@H](C)C3)c3c4nccnc4n(-c4nnc(C(F)F)s4)c3c2)CC1 [Compound 065J]", 8.62],
  ["C=CCn1c(=O)n(-c2nnc(C(F)F)s2)c2cc(S(=O)(=O)NC3(C#N)CC3)cc(N3CCN(C(=O)[C@H]4CCCO4)CC3)c21 [Compound 076H2]", 7.85]
]}

====

Catalogue of log10 of IC50 readings, one per entry.
# SYSTEM: PARG (Homo sapiens)
# Construct: made in house
# TEST DETAILS: Enzymatic inhibitory activity against PARG, HTRF assay
# Assay type: biochemical
# APPLIED CONDITIONS: HTRF; PARylated PARP1 protein as substrate; 60 minutes at room temperature; read-out: IC50 against PARG enzyme
METRIC: log10 of IC50 (log10 of the value in nM)

{"columns": ["COMPOUND", "log10 of IC50"],
 "data": [
  ["CC(C)n1c(=O)n(-c2nnc(C(F)F)s2)c2cc(S(=O)(=O)NC3(C#N)CC3)cc(N3CCN(C(=O)C(C)(C)F)CC3)c21", 1.54],
  ["C=CCn1c(=O)n(-c2nnc(C(F)F)s2)c2cc(S(=O)(=O)NC3(C#N)CC3)cc(N3CCN(C(=O)C4(OC)CC4)CC3)c21 [Compound 067N]", 0.49],
  ["C=CCn1c(=O)n(-c2nnc(C(F)F)s2)c2cc(S(=O)(=O)NC3(C#N)CC3)cc(N3CCN(C(=O)C4CCCN4)CC3)c21 (stereo not drawn) [Compound 076C]", 0.93],
  ["C=CCn1c(=O)n(-c2nnc(C(F)F)s2)c2cc(S(=O)(=O)NC3(C#N)CC3)cc(N3CCN(C(=O)C4(C)CCCN4)CC3)c21 (stereo not drawn) [Compound 076B]", 0.99],
  ["C[C@H]1CN(c2cc(S(=O)(=O)NC3(C)CC3)cn3c(-c4nnc(C(F)F)s4)c(C4CCCO4)nc23)C[C@H](C)N1 (stereo partly drawn) [Compound 080B]", -0.30],
  ["C=CCn1c(=O)n(-c2nnc(C(F)F)s2)c2cc(S(=O)(=O)NC3(C#N)CC3)cc(N3CCN(C(=O)C(C)(C)NC)CC3)c21 [Compound 067Q]", 0.70]
]}

====

# SYSTEM: PARG (Homo sapiens)
# Construct: made in house
# TEST DETAILS: Enzymatic inhibitory activity against PARG, HTRF assay
# Type: biochemical
# APPLIED CONDITIONS: HTRF; PARylated PARP1 protein as substrate; 60 minutes at room temperature; read-out: IC50 against PARG enzyme
Label T when IC50 is strictly below 20 nM; at or above that, label F.

{"columns": ["COMPOUND", "ASSIGNED CATEGORY"],
 "data": [
  ["CC(C)S(=O)(=O)N1CCN(c2cc(S(=O)(=O)NC3(C#N)CC3)cc3c2n(C2CC2)c(=O)n3-c2nnc(C(F)F)s2)CC1", "T"],
  ["CC(C)(O)C(=O)N1CCN(c2cc(S(=O)(=O)NC3(C#N)CC3)cc3c2ncn3-c2nnc(C(F)F)s2)CC1", "T"],
  ["C=CCn1c(=O)n(-c2nnc(C(F)F)s2)c2cc(S(=O)(=O)NC3(C#N)CC3)cc(N3CCN(C(=O)C(C)(C)O)[C@H](C)C3)c21", "T"],
  ["COc1nc2c(N3CCN(C(=O)N(C)C)CC3)cc(S(=O)(=O)NC3(C#N)CC3)cc2n1-c1nnc(C(F)F)s1", "T"],
  ["CC(C)C(=O)N1CCN(c2cc(S(=O)(=O)NC3(C#N)CC3)cc3c2n(C(C)C)c(=O)n3-c2nnc(C(F)F)s2)CC1", "F"],
  ["C[C@H]1CN(c2cc(S(=O)(=O)NC3(C#N)CC3)cc3c2nc(OC2CC2)n3-c2nnc(C(F)F)s2)C[C@H](C)N1 [Compound 077A]", "T"]
]}

Taken from patent EP4800013A1.
